testTarget: T1, SARS-CoV-2 NTD on MDCK-SIAT1 cells (SARS-CoV-2 (so in the source))
T1 construct: also called MDCK-NTD
measurementProtocol: flow cytometry on cells
measurementContext: one partner purified
assayEndpoint: binding result

Example cases with answers are listed next.
[
  {
    "binder": "FD 5E (antibody, V domains shown, source: HEK293T, transfected; culture supernatant or purified) VH: EVQLVESGGVVVQPGGSLRLSCAASGFTFDDYAMHWVRQAPGKGLEWVSLISWDGGSTYYADSVKGRFTISRDNSKNSLYLQMNSLRAEDTALYYCAKDSVRFRYYYGMDVWGQGTTVTVSS VL: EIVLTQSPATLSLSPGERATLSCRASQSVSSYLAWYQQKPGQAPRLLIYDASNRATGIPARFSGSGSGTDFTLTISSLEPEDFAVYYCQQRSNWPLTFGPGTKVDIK",
    "assayEndpoint": "binding result",
    "measuredResult": "no binding"
  },
  {
    "binder": "FD 1D (antibody, V domains shown, source: HEK293T, transfected; culture supernatant or purified) VH: EVQLVESGGGVVQPGRSLRLSCAASGFTFSSYAMHWVRQAPGKGLEWVAVISYDGSNKYYADSVKGRFTISRDNSKNTLYLQMNSLRAEDTAVYYCARAGSGSYLNWFDPWGQGTLVTVSS VL: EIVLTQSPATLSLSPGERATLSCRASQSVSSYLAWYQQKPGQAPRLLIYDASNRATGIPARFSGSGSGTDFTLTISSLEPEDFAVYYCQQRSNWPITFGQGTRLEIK",
    "assayEndpoint": "binding result",
    "measuredResult": "no binding"
  },
  {
    "binder": "FJ 4E (antibody, V domains shown, source: HEK293T, transfected; culture supernatant or purified) VH: QVQLVESGPGLVKPSETLSLTCSVSGGSISSGTYYWSWIRQQPGKGLEWIGYIYNTGRPYYNPFLKSRITISVDSSKNQFSLKLTSVTAADTAVYYCARDEYDSSDSGIQGHWFDPWGQGTLVTVSS VL: AIRMTQSPSSLSASVGDRVTITCRTSQNINSFLNWYQQKPGKGPNLLIYGAFTLQSGVPSRFSGSGSGTDFTLTISSLQPEDFATYFCQQSYSTPWTFGQGTKVEIK",
    "assayEndpoint": "binding result",
    "measuredResult": "no binding"
  },
  {
    "binder": "FJ 1C (antibody, V domains shown, source: HEK293T, transfected; culture supernatant or purified) VH: QVQLQESGPGLVKPSETLSLTCTVSGYSISSGYYWGWIRQPPGKGLEWIGSIYHSGSTYYNPSLKSRVTISVDTSKNQFSLKLSSVTAADTAVYYCARDKALLWFGELFTNLFDYWGQGTLVTVSS VL: QSALTQPASVSGSPGQSITISCTGTSSDVGGYNYVSWYQQHPGKAPKLMIYEVSNRPSGVSNRFSGSKSGNTASLTISGLQAEDEANYYCSSYTSSSTLVFGGGTKLTVL",
    "assayEndpoint": "binding result",
    "measuredResult": "binds"
  }
]

As a next step, examine the binder that follows.
Q: Value lookup for binding result; key = FN 8C (antibody, V domains shown, source: HEK293T, transfected; culture supernatant or purified) VH: QVQLVESGGGVVQPGRSLRLSCAASGFTFSSYGMHWVRQAPGKGLEWVAVISYDGSNKYYADTVKGRFTISRDNSKNTLYLQMNSLRAEDTAVYYCARERTYYDILTGYRHYYGMDVWGQGTTVTVSS VL: SYELTQPPSVSVAPGQTARITCGGNNIGSKSVHWYQQKPGQAPVLVVYDDSDRPSGIPERFSGSNSGNTATLTISRVEAGDEADYYCQVWDSSSDHWVFGGGTKLTVL
Ans: no binding
